Target: Histone-lysine N-methyltransferase EHMT2 (Homo sapiens)
Test: qHTS Assay for Inhibitors of Histone Lysine Methyltransferase G9a; further: nearly all actives have a fitted effect of over 75% in size
Details: G9a H3K9 monomethylation, AlphaScreen, 2 h; series mostly up to 59 µM
In all, about 350,000 compounds went through this assay and about 31,000 (8.9%) were called active. Roughly 15% stayed inconclusive and do not appear here. The call rests on the fitted dose curve; in most records, active means well fitted inhibition curve with a large enough effect; inconclusive means small, poorly fitted or top-dose-only effect; inactive means no such curve, though single readings can be large or run the other way. The list comes from a sample in which actives are over-represented; it also holds close analogues and randomly drawn compounds.
# valid calls are active, inactive; nothing else

Use the examples below as a reference point.
CN(C)c1ccc(C2Nc3ccccc3C(=O)N2NS(=O)(=O)c2ccccc2)cc1 (configuration not stated) ... active
O=C(c1cccc(Cl)c1)N1CCN(Cc2ccccc2)CC1 ... inactive
Cc1cc2ccccc2n2c(SCC(=O)N3CCN(C(=O)c4ccco4)CC3)nnc12 ... inactive
COc1ccc(CN2CCN(C(=O)c3cc(C4CC4)nn3-c3ccccc3)CC2)cc1F ... inactive
COC(=O)c1ccc(CN2CCCC(C(=O)Nc3cccc(-n4cnnn4)c3)C2)cc1 (configuration not stated) ... inactive
O=C(O)c1cccc(S(=O)(=O)Nc2ccc(O)cc2Sc2nc3ccccc3s2)c1 ... active
O=C(c1cc(-c2ccco2)nc2ccccc12)N(Cc1nnc(-c2ccc(Cl)cc2)o1)C1CC1 ... active
CC(OC(=O)CCC(=O)c1ccccc1)C(=O)Nc1ccc(F)cc1 (configuration not stated) ... inactive

Task: Could you kindly confirm the outcome this assay logged for "O=C(COC(=O)CNS(=O)(=O)c1ccc(F)c(F)c1F)NC1CCCC1" ?
Output: inactive

Task: Could you kindly confirm the outcome this assay logged for "CC(C)CC(=O)N1CCC(O)(CS(=O)(=O)Cc2ccccc2)CC1" ?
Output: inactive

Task: Could you kindly confirm the outcome this assay logged for "O=c1cc2nc(-c3ccccc3)nc(SCCOc3ccc(Cl)cc3)n2[nH]1" ?
Output: inactive

Task: Could you kindly confirm the outcome this assay logged for O=C1c2ccccc2NC(c2ccccn2)N1NS(=O)(=O)c1ccccc1 (configuration not stated) ?
Output: inactive

Task: Could you kindly confirm the outcome this assay logged for "CCOC(=O)c1ccc(NC(=O)Cn2cc(S(=O)(=O)Cc3ccccc3F)c3ccccc32)cc1" ?
Output: inactive

Task: Could you kindly confirm the outcome this assay logged for "COc1ccc(S(=O)(=O)N2CCN(c3ccc(F)cc3)CC2)cc1-c1noc(C)n1" ?
Output: inactive

Task: Could you kindly confirm the outcome this assay logged for "CCOc1ccc(N(CC)C(=O)C2CCN(S(=O)(=O)c3cccc4nonc34)CC2)cc1" ?
Output: inactive

Task: Could you kindly confirm the outcome this assay logged for O=C1CC(c2nnc(Cc3ccc(Cl)cc3)o2)CN1c1ccccc1 (configuration not stated) ?
Output: inactive

Task: Could you kindly confirm the outcome this assay logged for "COc1ccc(CCNC(=O)c2ccc3c(c2)sc2nc(-c4ccc(C)cc4)cn23)cc1OC" ?
Output: inactive

Task: Could you kindly confirm the outcome this assay logged for "CCc1nc(-c2cc(S(=O)(=O)N3CCN(c4ccc(OC)cc4)CC3)ccc2OC)no1" ?
Output: active

Task: Could you kindly confirm the outcome this assay logged for "COc1ccc(OC)c(-c2noc(N3CCN(c4cc(Cl)ccc4C)CC3)n2)c1" ?
Output: inactive

Task: Could you kindly confirm the outcome this assay logged for "c1ccc(C(c2ccccc2)N2CCN(Cc3nnnn3C3CCCCC3)CC2)cc1" ?
Output: inactive

These measurements were taken from PubChem BioAssay AID504332.
